Structures can show the parent of a compound that is named as a salt.
Outcome measure: melting point

Examples from the recorded data:
Prompt line: Return melting point (reported value) for this compound: NC(N)=NC(=O)c1c(OCc2ccc(Br)cc2)ccc2ccccc12 (as salt: hydrochloride) (hydrate or solvate) [Example 9, Hydrochloride Hemihydrate]
Response line: 198 to 202 °C

Prompt line: State its melting point for this compound: NC(N)=NC(=O)c1c(OCc2ccc(CN3CCCCC3)cc2)ccc2ccccc12 [Example 10]
Response line: 205 to 210 °C

Prompt line: Provide only the value of recorded melting point for Cl.NC(N)=NC(=O)c1ccc(F)c2ccccc12 [Example 1]
Response line: 245 °C

Continuing:
Prompt line: Identify measured melting point associated with COc1ccc2c(C(=O)N=C(N)N)cccc2c1 (as salt: hydrochloride) [Example 4]
Response line: 235 to 236 °C

Prompt line: Supply recorded melting point for COc1ccc2c(C(=O)N=C(N)N)cccc2c1C(F)(F)F (as salt: hydrochloride) [Example 3] here.
Response line: > 260 °C

Prompt line: Identify measured melting point associated with NC(N)=NC(=O)c1ccc(C(=O)N=C(N)N)c2ccccc12 [Example 23]
Response line: 270 °C (dec.)
